B1: Ankyrin-1, residues 1405 to 1484; numbered along this chain, P16157 (parent)
chain: MKMAVISEHLGLSWAELARELQFSVEDINRIRVENPNSLLEQSVALLNLWVIREGQNANMENLYTALQSIDRGEIVNMLE

- Variants of: B1
- Protocol: abundance fitness (aPCA) (normalised: wild type 0, dead -1); higher = more abundant; growth selection in yeast, the domain comes from the species named
- Condition Context: Homo sapiens
Parameter: abundance fitness

Would you please look over these solved cases?
{"columns": ["Sequence Data", "abundance fitness"],
 "data": [
  ["MKMAVISEHLGLSWAELARELQFSVEDINRIRVENPNSLLEQSVALLTLWVIREGQNANMENLYTALQSIDRGEIVNMLE [N48T]", -0.544],
  ["MKMAVISEHLGLSWAELARELQFSVEDINCIRVENPNSLLEQSVALLNLWVIREGQNANMENLYTALQSIDRGEIVNMLE [R30C]", -0.022],
  ["MKMAVISEHLGLSWAELARELQFSVEDINRIEVENPNSLLEQSVALLNLWVIREGQNANMENLYTALQSIDRGEIVNMLE [R32E]", 0.031],
  ["MKMAVISEHLGLSWAELARELQFSVEDINRIRVENPNSLLEQSVALLNLLVIREGQNANMENLYTALQSIDRGEIVNMLE [W50L]", -0.368],
  ["MKMAVISEHLGLSWAELARELQFSVEDINRIRVENPNSLLEQSVALLNLWVIREGQNANMENLRTALQSIDRGEIVNMLE [Y64R]", -0.407]
]}

Please give abundance fitness for each item listed below.
1. MKMAVISEHLGLSWAELARELQFSVEDINRIRVENPNSLLEQSVALLNLWVIREGQNANMENLYTALQSIDRGEIVNDLE [M78D]
2. MKMAVISEHLGLSWAELARELQFSVEDINRIRVENPNSLLEQSVALINLWVIREGQNANMENLYTALQSIDRGEIVNMLE [L47I]
3. MKMAVISEHLGLSWAELARELQFSVEDINRIRVENPNSLLEQSVALLNLWVIREGQNANMENLYTALQSIDRGECVNMLE [I75C]
4. MKMAVISEHLGLSWAELARELQFSVEDINRIRVENPNSLLEQSVALLNLWVIREGQNANMENLYTALQSIDHGEIVNMLE [R72H]
5. MKMAVISEHLGLSWAELARELQFSVEDINRIRVEPPNSLLEQSVALLNLWVIREGQNANMENLYTALQSIDRGEIVNMLE [N35P]

-0.013
-0.256
-0.734
-0.15
-0.866

Data origin: the Human Domainome abundance scans (Beltran et al. 2025)
